Biological target: LpApaH (3) (Legionella pneumophila, UniProt A0A2S6EWV0)
Sequence (A0A2S6EWV0 1-426): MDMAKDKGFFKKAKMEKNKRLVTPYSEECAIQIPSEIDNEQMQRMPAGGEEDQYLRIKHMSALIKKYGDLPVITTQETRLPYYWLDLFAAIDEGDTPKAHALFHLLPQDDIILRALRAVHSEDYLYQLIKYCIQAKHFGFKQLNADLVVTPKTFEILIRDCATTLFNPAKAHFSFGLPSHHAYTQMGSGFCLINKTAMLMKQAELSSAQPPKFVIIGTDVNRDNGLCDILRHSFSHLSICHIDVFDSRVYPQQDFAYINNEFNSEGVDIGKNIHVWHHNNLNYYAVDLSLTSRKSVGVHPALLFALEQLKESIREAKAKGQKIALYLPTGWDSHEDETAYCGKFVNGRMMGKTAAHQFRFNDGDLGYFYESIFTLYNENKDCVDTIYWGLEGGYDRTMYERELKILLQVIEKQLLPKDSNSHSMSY
Assay: biochemical
Conditions: IC50
Attribute: pIC50
Keep it numeric: pIC50 is minus log10 of the concentration in mol/L.

CC(/C=C/C(=O)NO)=C\[C@@H](C)C(=O)c1ccc(N(C)C)cc1	8.14

# input pIC50 lookup needed for O=C(CCCCCCC(=O)Nc1ccccc1)NO [SAHA, suberoylanilide hydroxamic acid] , thanks.
# output 6.17

* * *

Molecular target: LcApaH (3) (Legionella cherrii)
Sequence (A0A0W0SGS1 1-425): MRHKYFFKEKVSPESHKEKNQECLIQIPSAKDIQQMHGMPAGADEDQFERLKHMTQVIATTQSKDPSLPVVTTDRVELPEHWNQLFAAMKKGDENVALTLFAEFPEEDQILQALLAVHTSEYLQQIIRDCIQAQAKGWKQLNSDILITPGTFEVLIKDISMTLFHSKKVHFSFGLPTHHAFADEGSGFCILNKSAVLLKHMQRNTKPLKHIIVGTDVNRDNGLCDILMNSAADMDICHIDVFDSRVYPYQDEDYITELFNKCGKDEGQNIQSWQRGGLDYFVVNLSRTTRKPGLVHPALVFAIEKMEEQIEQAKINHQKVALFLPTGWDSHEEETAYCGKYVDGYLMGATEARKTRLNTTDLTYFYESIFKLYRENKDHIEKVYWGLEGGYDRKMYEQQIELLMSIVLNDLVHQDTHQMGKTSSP
Assay: biochemical
Conditions: IC50, 40 µM LGKac, 0.5 nM enzyme, 30 min, 37 °C
Attribute: IC50
A number alone suffices; assume nM.

CC(/C=C/C(=O)NO)=C\[C@@H](C)C(=O)c1ccc(N(C)C)cc1 [TSA, trichostatin A]	10.4

Turning to the following molecule.
# input IC50 lookup needed for O=C(CCCCCCC(=O)Nc1ccccc1)NO [SAHA, suberoylanilide hydroxamic acid] , thanks.
# output 809

* * *

Target: UniProtKB A0A377Z5F6
Sequence (A0A377Z5F6 1-371): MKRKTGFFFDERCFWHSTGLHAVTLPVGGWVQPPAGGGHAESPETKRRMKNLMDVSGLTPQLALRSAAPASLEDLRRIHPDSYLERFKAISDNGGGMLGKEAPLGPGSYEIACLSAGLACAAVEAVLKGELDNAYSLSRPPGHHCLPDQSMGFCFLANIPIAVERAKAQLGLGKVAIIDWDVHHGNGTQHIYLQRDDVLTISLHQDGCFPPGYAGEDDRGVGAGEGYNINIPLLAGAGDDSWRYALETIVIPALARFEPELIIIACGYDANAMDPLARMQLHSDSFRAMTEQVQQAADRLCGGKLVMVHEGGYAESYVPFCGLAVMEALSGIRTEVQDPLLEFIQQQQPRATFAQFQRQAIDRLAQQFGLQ
Assay: biochemical
Settings: IC50, 60 µM QPKKac, 15 nM enzyme, 60 min, 37 °C
outcomeMeasure: pIC50
Keep it numeric: pIC50 is minus log10 of the concentration in mol/L.

# input pIC50 lookup needed for O=C(CCCCCCC(=O)Nc1ccccc1)NO [SAHA, suberoylanilide hydroxamic acid] , thanks.
# output 7.01

* * *

Target or system LpApaH (3) (Legionella pneumophila, UniProt A0A2S6EWV0): recorded Ki listed per item.
A number alone suffices; assume µM.

CC(/C=C/C(=O)NO)=C\[C@@H](C)C(=O)c1ccc(N(C)C)cc1 [TSA, trichostatin A]	0.00247

Turning to the following molecule.
# input GET /values?readout=Ki&system=LpApaH (3) (Legionella pneumophila, UniProt A0A2S6EWV0)&item= O=C(CCCCCCC(=O)Nc1ccccc1)NO [SAHA, suberoylanilide hydroxamic acid]
# output 0.23

Data provenance: paper PMC11532494
